growth overview
# System: HOP-92 NSCLC
# experimentDescription: NCI-60 one-dose screen, 48 h (100 = growth as untreated, 0 = no growth, -100 = all killed)
# conditionSet: 10 µM unless noted
This is part of a sample that, as a whole, favours compounds with a hit. Of some 83,000 tested, about 20% had one in any assay. The source made the active and inactive calls. The calls were made as follows: active = growth percent below 10; inactive = the rest.

{"columns": ["compound", "experimentalTarget", "growth"],
 "data": [
  ["O=C1C=CC2(NN=C(c3ccccc3)N2c2cccc(Cl)c2)C(Cl)=C1 (stereo unspecified)", "HOP-92 NSCLC", "84.5% (inactive)"],
  ["C[C@@H](NC(=O)c1ncnc(N)c1Cl)c1ncc(C(=O)Nc2cc(C(F)(F)F)c(Cl)cn2)s1", "HOP-92 NSCLC", "64.1% (inactive)"],
  ["CCCCCCCC(=O)SCC/C=C/[C@@H]1CC(=O)NCc2cccc(n2)C2=N[C@@](C)(CS2)C(=O)N[C@@H](C(C)C)C(=O)O1", "HOP-92 NSCLC", "-5.42% (active)"],
  ["C=CC(=O)N1CCC[C@@H](n2nc(-c3ccc(Oc4ccccc4)cc3)c3c(N)ncnc32)C1", "HOP-92 NSCLC", "28.3% (inactive)"],
  ["Cc1cc(Nc2cc(N3CCN(C)CC3)nc(Sc3ccc(NC(=O)C4CC4)cc3)n2)n[nH]1", "HOP-92 NSCLC", "12.1% (inactive)"],
  ["Cc1cc(C(O)CN(C)C)cc2c1ccc1cc(C(C)C)ccc12 (stereo unspecified)", "HOP-92 NSCLC", "5.86% (active)"],
  ["CCN(CC)CCOc1ccc(/C(=C(\\C)c2ccc(Cl)cc2)c2ccc(Cl)cc2)cc1", "HOP-92 NSCLC", "80.5% (inactive)"],
  ["CO[C@H]1C[C@@H]2CC[C@@H](C)[C@@](O)(O2)C(=O)C(=O)N2CCCC[C@H]2C(=O)O[C@H]([C@H](C)C[C@@H]2CC[C@@H](OCCO)[C@H](OC)C2)CC(=O)[C@H](C)/C=C(\\C)[C@@H](O)[C@H](OC)C(=O)[C@H](C)C[C@H](C)\\C=C/C=C/C=C/1C", "HOP-92 NSCLC", "45.7% (inactive)"],
  ["CC/C=C\\C[C@H]1C/C=C2/C(=O)C=C[C@@H]2C/C=C\\CCCC(=O)O1", "HOP-92 NSCLC", "-36.6% (active)"],
  ["Cc1ccc(-c2nc3ccc(Cl)cn3c2NC2CCCCC2)o1", "HOP-92 NSCLC", "73.1% (inactive)"],
  ["CCCC(=O)OCC1OC(n2cnc3c(=S)nc(N)[nH]c32)C(OC(=O)CCC)C1OC(=O)CCC (stereo unspecified)", "HOP-92 NSCLC", "11% (inactive)"],
  ["O=C(O)C1(Cc2cccc(Nc3nccs3)n2)CCC(Oc2cccc(Cl)c2F)CC1 (stereo unspecified)", "HOP-92 NSCLC", "102% (inactive)"],
  ["CCn1cc(-c2ccnc3[nH]c(-c4cccc(CN(C)C)c4)cc23)c(-c2ccc(NC(=O)N(C)C)cc2)n1", "HOP-92 NSCLC", "-13.3% (active)"],
  ["COc1ccc(C(=O)N2c3ccccc3Sc3ccccc32)c(F)c1", "HOP-92 NSCLC", "42.3% (inactive)"],
  ["O=c1[nH]ccc2c(S(=O)(=O)N3CCCNCC3)cccc12", "HOP-92 NSCLC", "30% (inactive)"],
  ["N#Cc1c(NC(=O)c2ccco2)[n+]([O-])c2cc(F)c(F)cc2[n+]1[O-]", "HOP-92 NSCLC", "-4.85% (active)"],
  ["O=C(CNc1nnc(-c2ccc(Cl)cc2)o1)Nc1ccc(-c2nc3ccccc3s2)cc1", "HOP-92 NSCLC", "87.9% (inactive)"],
  ["Cc1cc(Nc2nc(N[C@@H](C)c3ncc(F)cn3)ncc2Cl)n[nH]1", "HOP-92 NSCLC", "108% (inactive)"],
  ["CC(N)C(Cc1ccccc1)c1ccc(Cl)cc1 (stereo unspecified)", "HOP-92 NSCLC", "56.5% (inactive)"],
  ["C[C@@H](Nc1cc(F)cc(F)c1)c1cc(C(=O)N(C)C)cc2c(=O)cc(N3CCOCC3)oc12", "HOP-92 NSCLC", "27.3% (inactive)"],
  ["COc1cnc2c(c1)C(=O)c1c-2n(CCCN2CCOCC2)c(=O)c2cc(Cl)ccc12", "HOP-92 NSCLC", "70.4% (inactive)"],
  ["Nc1ncnc2c1ccn2-c1cccc(NC(=O)c2ccc(N3CCOCC3)c(C(F)(F)F)c2)c1", "HOP-92 NSCLC", "20.5% (inactive)"],
  ["Oc1ccc(/C=N/Nc2nnc(N/N=C/c3ccc(O)cc3O)c3ccccc23)c(O)c1", "HOP-92 NSCLC", "-35.8% (active)"],
  ["CCN(CC)CCNC(=O)c1c(C)[nH]c(/C=C2\\C(=O)Nc3ccc(F)cc32)c1C", "HOP-92 NSCLC", "30.3% (inactive)"],
  ["CCCCCCCC12Cc3ccccc3C1=Nc1c(c3ccccc3n1C)C2=O (stereo unspecified)", "HOP-92 NSCLC", "93.4% (inactive)"],
  ["Cn1cc(-c2[nH]c3cc(NC(=O)[C@H](N)C4CCCCC4)cc4c3c2C=NNC4=O)cn1", "HOP-92 NSCLC", "-25.2% (active)"],
  ["C1=C\\COCc2cc(ccc2OCCN2CCCC2)Nc2nccc(n2)-c2cccc(c2)COC/1", "HOP-92 NSCLC", "-0.764% (active)"],
  ["CCN(CC)Cc1cc(Nc2cc(C(F)(F)F)c(C#N)c3nc4ccccc4n23)ccc1O", "HOP-92 NSCLC", "-30.2% (active)"],
  ["CN(C)C1CCN(C(=O)c2ccc(NC(=O)Nc3ccc(-c4nc(N5CCOCC5)nc(N5CCOCC5)n4)cc3)cc2)CC1", "HOP-92 NSCLC", "-32% [2.5 µM] (active)"],
  ["Cn1ccnc1C(=O)/C=C/c1ccc(CC(=O)Nc2ccc(Br)cc2)cc1", "HOP-92 NSCLC", "61.1% (inactive)"],
  ["CN1CCN(CCOc2cc(OC3CCOCC3)c3c(Nc4c(Cl)ccc5c4OCO5)ncnc3c2)CC1", "HOP-92 NSCLC", "35.3% (inactive)"],
  ["COC(=O)CCCNc1c(-c2c(O)c(O)cc3c(O)c(-c4c(C)cc5c(-c6nc7ccccn7c6NCCCC(=O)OC)c(O)c(O)cc5c4O)c(C)cc23)nc2ccccn12", "HOP-92 NSCLC", "55.3% (inactive)"],
  ["COc1cccc(Nc2ncnn3ccc(CN4CC[C@@H](N)[C@H](O)C4)c23)c1", "HOP-92 NSCLC", "26.3% (inactive)"],
  ["O=C1NC(=O)[C@@H](c2cn3c4c(cccc24)CCC3)[C@@H]1c1c[nH]c2ccccc12", "HOP-92 NSCLC", "31% (inactive)"],
  ["CNC(=O)c1cc(Oc2cccc3nc(Nc4ccc(Oc5ccccc5)cc4)ccc23)ccn1", "HOP-92 NSCLC", "71.2% (inactive)"],
  ["Cc1cc(NCC(=O)Nc2ccc(-c3nc4ccccc4s3)cc2)no1", "HOP-92 NSCLC", "100% (inactive)"]
]}
